# procedure_text: resazurin metabolic signal in HepG2 cells – cell-based, resazurin fluorescence, 24 h, PK04 Diversity Set, profiling panel (AID 1172); further: test concentration not given here
# test_settings: HepG2 viability, higher = more signal
Under this convention, Criterion met denotes z-score strictly below -0.05 and Criterion not met denotes z-score at or above -0.05.

Before answering, review these 5 worked examples.
| molecule | assigned_class |
| --- | --- |
| C=CCN(Cc1ccccc1)C(=O)C(c1cccs1)N(C(=O)/C=C\C(=O)O)c1ccc(CCOCCO)cc1 (centres undefined) | Criterion met |
| C=CCOC(=O)[C@H]1[C@@H]2C(=O)O[C@@H](c3ccccc3)[C@@H](c3ccccc3)N2[C@@H](c2ccc(OCCOC(=O)[C@@H]3C[C@@H]4C(=O)N5CCC[C@H]5C(=O)N4[C@@H]3c3cccc(OCCO)c3)cc2)[C@]12C(=O)Nc1ccc(I)cc12 | Criterion met |
| COC(=O)c1c(CC[C@@H](CO)NC(=O)NCCc2c[nH]c3ccccc23)oc(C(=O)Cc2ccccc2)c1C(=O)OC | Criterion not met |
| NC(=O)[C@@H]1[C@H]2C(=O)O[C@H](c3ccccc3)[C@H](c3ccccc3)N2[C@H](c2ccc(O)cc2)[C@@]12C(=O)Nc1ccc(C#CC3=CCCCC3)cc12 | Criterion met |
| CC(C)NC(=O)[C@@H]1c2ccccc2C(=O)N(C(C)C)[C@H]1c1ccc(CO)cc1 | Criterion not met |

Req: Threshold test, z-score < -0.05: `NCCCCCNC(=O)[C@H]1C[C@H]2C(=O)N3CCC[C@H]3C(=O)N2[C@H]1c1ccc(O)cc1`
Resp: Criterion met

Req: And the next one, `CN(C)CCCCCCNC(=O)[C@@H]1C[C@@H]2C(=O)N3CCC[C@H]3C(=O)N2[C@@H]1c1ccc(O)cc1` ?
Resp: Criterion met

Req: And the next one, `CN(C)CCCC[C@@H]1NC(=O)[C@H]2C[C@@H](C(=O)NCCCCCN)[C@@H](c3cccc(OCCO)c3)N2C1=O` ?
Resp: Criterion not met
